- Experimental target: PI3Kα (p110α/p85α) (Homo sapiens)
- Construct: GST (N)
- Sequence (P42336 whole entry): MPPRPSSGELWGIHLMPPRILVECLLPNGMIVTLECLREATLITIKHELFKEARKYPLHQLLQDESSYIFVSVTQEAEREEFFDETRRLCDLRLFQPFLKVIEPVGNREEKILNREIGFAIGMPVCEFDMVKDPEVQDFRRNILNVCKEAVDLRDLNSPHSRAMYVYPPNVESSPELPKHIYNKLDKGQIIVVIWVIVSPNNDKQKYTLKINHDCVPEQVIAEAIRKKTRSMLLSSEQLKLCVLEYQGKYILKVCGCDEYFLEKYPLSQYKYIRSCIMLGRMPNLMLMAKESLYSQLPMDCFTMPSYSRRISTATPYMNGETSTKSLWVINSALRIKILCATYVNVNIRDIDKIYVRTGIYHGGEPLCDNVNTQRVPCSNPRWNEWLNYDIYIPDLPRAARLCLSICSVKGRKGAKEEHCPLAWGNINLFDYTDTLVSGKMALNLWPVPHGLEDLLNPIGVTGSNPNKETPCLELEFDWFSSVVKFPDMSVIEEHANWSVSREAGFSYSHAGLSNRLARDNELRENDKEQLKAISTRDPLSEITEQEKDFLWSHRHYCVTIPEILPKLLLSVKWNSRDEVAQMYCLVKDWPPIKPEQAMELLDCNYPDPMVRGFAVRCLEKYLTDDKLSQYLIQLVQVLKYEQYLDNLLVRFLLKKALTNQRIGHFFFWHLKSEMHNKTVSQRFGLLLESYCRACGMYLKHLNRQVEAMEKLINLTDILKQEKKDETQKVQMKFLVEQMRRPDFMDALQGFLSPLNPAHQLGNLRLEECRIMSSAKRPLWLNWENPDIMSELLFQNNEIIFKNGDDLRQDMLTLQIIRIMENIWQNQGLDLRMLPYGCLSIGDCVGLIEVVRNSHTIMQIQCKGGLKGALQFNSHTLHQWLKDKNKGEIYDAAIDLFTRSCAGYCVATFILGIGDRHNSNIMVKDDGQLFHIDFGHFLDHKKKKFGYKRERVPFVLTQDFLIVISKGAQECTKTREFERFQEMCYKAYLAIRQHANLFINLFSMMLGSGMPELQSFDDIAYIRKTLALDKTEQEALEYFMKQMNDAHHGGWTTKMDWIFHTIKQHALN
- Sequence (P27986 whole entry partner): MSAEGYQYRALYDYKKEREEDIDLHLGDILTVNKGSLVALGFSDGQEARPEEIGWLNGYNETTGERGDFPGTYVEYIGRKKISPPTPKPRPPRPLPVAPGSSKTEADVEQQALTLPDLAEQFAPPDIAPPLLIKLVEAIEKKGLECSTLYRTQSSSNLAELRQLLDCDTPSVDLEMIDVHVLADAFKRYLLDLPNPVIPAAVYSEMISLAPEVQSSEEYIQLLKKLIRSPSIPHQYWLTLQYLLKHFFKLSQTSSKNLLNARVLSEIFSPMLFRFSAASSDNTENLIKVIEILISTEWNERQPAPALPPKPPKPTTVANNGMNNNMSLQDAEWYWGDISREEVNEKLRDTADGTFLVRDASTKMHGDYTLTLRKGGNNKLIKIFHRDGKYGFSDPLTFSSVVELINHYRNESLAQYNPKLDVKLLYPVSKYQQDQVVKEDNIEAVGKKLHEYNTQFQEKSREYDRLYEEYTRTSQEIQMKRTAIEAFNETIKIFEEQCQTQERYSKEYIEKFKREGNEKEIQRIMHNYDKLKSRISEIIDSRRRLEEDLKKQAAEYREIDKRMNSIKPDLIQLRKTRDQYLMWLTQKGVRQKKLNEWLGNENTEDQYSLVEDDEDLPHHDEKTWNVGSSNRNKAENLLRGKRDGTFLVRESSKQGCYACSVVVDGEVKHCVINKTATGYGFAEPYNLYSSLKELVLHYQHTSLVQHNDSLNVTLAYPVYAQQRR
- Assay notes: PI3Kα ADP-Glo assay
- Setup conditions: 20 μM PIP2, 10 μM ATP, 30 minutes
pIC50: −log10 of the molar value.
Observed property: pIC50

**Query** Form: Entry = O=C(NO)c1cnc(N(CCO)Cc2cc3nc(-c4cccc5[nH]ncc45)nc(N4CCOCC4)c3s2)nc1 | System = PI3Kα (p110α/p85α) (Homo sapiens) | pIC50 = ____
**Result** > 7.00

**Query** Form: Entry = O=C(/C=C/c1ccc(S(=O)(=O)Nc2cc3nc(-c4cccc5[nH]ncc45)nc(N4CCOCC4)c3s2)cc1)NO | System = PI3Kα (p110α/p85α) (Homo sapiens) | pIC50 = ____
**Result** > 7.00

**Query** Form: Entry = CS(=O)(=O)N1CCN(Cc2cc3nc(-c4cccc5[nH]ncc45)nc(N4CCN(CCCCCC(=O)NO)CC4)c3s2)CC1 | System = PI3Kα (p110α/p85α) (Homo sapiens) | pIC50 = ____
**Result** < 5.00

**Query** Form: Entry = NC(=O)CN(Cc1cc2nc(-c3cccc4[nH]ncc34)nc(N3CCOCC3)c2s1)c1ncc(C(=O)NO)cn1 | System = PI3Kα (p110α/p85α) (Homo sapiens) | pIC50 = ____
**Result** > 7.00

**Query** Form: Entry = CC(=O)NCCN(Cc1cc2nc(-c3cccc4[nH]ncc34)nc(N3CCOCC3)c2s1)c1ncc(C(=O)NO)cn1 | System = PI3Kα (p110α/p85α) (Homo sapiens) | pIC50 = ____
**Result** > 7.00

**Query** Form: Entry = O=C(NO)c1cnc(N2CCC(CNc3cc4nc(-c5cccc6[nH]ncc56)nc(N5CCOCC5)c4s3)CC2)nc1 | System = PI3Kα (p110α/p85α) (Homo sapiens) | pIC50 = ____
**Result** > 7.00

**Query** Form: Entry = O=C(CCCCCCN1CCN(Cc2cc3nc(-c4cccc5[nH]ncc45)nc(N4CCOCC4)c3s2)CC1)NO | System = PI3Kα (p110α/p85α) (Homo sapiens) | pIC50 = ____
**Result** 6.00 to 7.00

**Query** Form: Entry = COc1ccc(-c2nc(N3CCOCC3)c3sc(C(C)(C)N(C)c4ncc(C(=O)NO)cn4)cc3n2)cn1 | System = PI3Kα (p110α/p85α) (Homo sapiens) | pIC50 = ____
**Result** 5.00 to 6.00

**Query** Form: Entry = CC(=O)Nc1ccc(-c2nc(N3CCOCC3)c3sc(CN(C)c4ncc(C(=O)NO)cn4)cc3n2)cc1 | System = PI3Kα (p110α/p85α) (Homo sapiens) | pIC50 = ____
**Result** > 7.00

**Query** Form: Entry = CN(CCCCCCC(=O)NO)Cc1cc2nc(-c3cccc4[nH]ncc34)nc(N3CCOCC3)c2s1 | System = PI3Kα (p110α/p85α) (Homo sapiens) | pIC50 = ____
**Result** > 7.00

**Query** Form: Entry = CN(CC1CCN(c2ncc(C(=O)NO)cn2)CC1)c1cc2nc(-c3cccc4[nH]ncc34)nc(N3CCOCC3)c2s1 | System = PI3Kα (p110α/p85α) (Homo sapiens) | pIC50 = ____
**Result** > 7.00

**Query** Form: Entry = CN(Cc1cc2nc(-c3ccc4c(c3)CCN4)nc(N3CCOCC3)c2s1)c1ncc(C(=O)NO)cn1 | System = PI3Kα (p110α/p85α) (Homo sapiens) | pIC50 = ____
**Result** < 5.00

**Query** Form: Entry = O=C(NO)c1ccc(CNCc2cc3nc(-c4cccc5[nH]ncc45)nc(N4CCOCC4)c3s2)cc1 | System = PI3Kα (p110α/p85α) (Homo sapiens) | pIC50 = ____
**Result** 6.00 to 7.00

**Query** Form: Entry = CN(Cc1cc2nc(-c3ccc(N)c(CO)c3)nc(N3CCOCC3)c2s1)c1ncc(C(=O)NO)cn1 | System = PI3Kα (p110α/p85α) (Homo sapiens) | pIC50 = ____
**Result** > 7.00

**Query** Form: Entry = CN(Cc1cc2nc(-c3ccc(F)cc3)nc(N3CCOCC3)c2s1)c1ncc(C(=O)NO)cn1 | System = PI3Kα (p110α/p85α) (Homo sapiens) | pIC50 = ____
**Result** < 5.00

====

Consider the following compounds; for each one, report its pIC50.
- System: PANC-1
- Assay notes: Cell proliferation assay (CellTiter-Glo)
- Assay type: cell-based
- Setup conditions: Homo sapiens, Pancreas, 72 hours, 0.5% fetal bovine serum, read-out: antiproliferative activity IC50, PANC-1
- Procedure: Cell Proliferation Assay: Cancer cell lines were plated at 5,000 to 10,000 per well in 96-well flat bottomed plates with various concentration of compounds. The cells were incubated with compounds for 72 hours in the presence of 0.5% of fetal bovine serum. Growth inhibition was accessed by adenosine triphosphate (ATP) content assay using Promega CellTiter-Glo kit. […] The mixture was shaken and incubated for 30 minutes and subsequently the luminescence was measured.
pIC50: −log10 of the molar value.

**Query** Value lookup for pIC50; key = Cn1c(=O)n(-c2ccc(C(C)(C)C#N)cc2)c2c3cc(-c4cnc5ccccc5c4)ccc3ncc21 [BEZ-235, reference compound]
**Result** 5.00 to 6.00

**Query** Value lookup for pIC50; key = CN(Cc1cc2nc(-c3ccc4[nH]cnc4c3)nc(N3CCOCC3)c2s1)c1ncc(C(=O)NO)cn1
**Result** 6.00 to 7.00

**Query** Value lookup for pIC50; key = CN(Cc1cc2nc(-c3cccc4[nH]ncc34)nc(N3CCOCC3)c2s1)c1ncc(C(=O)NO)cn1
**Result** 7.00 to 8.00

**Query** Value lookup for pIC50; key = CNc1ncc(-c2nc(N3CCOCC3)c3sc(CN(C)c4ncc(C(=O)NO)cn4)cc3n2)cn1
**Result** 7.00 to 8.00

**Query** Value lookup for pIC50; key = CS(=O)(=O)N1CCN(Cc2cc3nc(-c4cccc5[nH]ncc45)nc(N4CCOCC4)c3s2)CC1 [GDC-0941, reference compound]
**Result** 5.00 to 6.00

**Query** Value lookup for pIC50; key = COc1ccc(-c2nc(N3CCOCC3)c3sc(CN(C)c4ncc(C(=O)NO)cn4)cc3n2)cn1
**Result** 7.00 to 8.00

**Query** Value lookup for pIC50; key = CN(Cc1cc2nc(-c3ccc(N)cc3)nc(N3CCOCC3)c2s1)c1ncc(C(=O)NO)cn1
**Result** 7.00 to 8.00

====

- System: WiDr
- Assay notes: Cell proliferation assay (CellTiter-Glo)
- Type: cell-based
- Setup conditions: Homo sapiens, Colon, 72 hours, 0.5% fetal bovine serum, read-out: antiproliferative activity IC50, WiDr
pIC50: −log10 of the molar value.
Consider the following compounds; for each one, report its pIC50.

**Query** Value lookup for pIC50; key = CNc1ccc(-c2nc(N3CCOCC3)c3sc(C(=O)NCC4CCN(c5ncc(C(=O)NO)cn5)CC4)cc3n2)cn1 [Compound 308]
**Result** 6.00 to 7.00

**Query** Value lookup for pIC50; key = CS(=O)(=O)N1CCN(Cc2cc3nc(-c4cccc5[nH]ncc45)nc(N4CCOCC4)c3s2)CC1 [GDC-0941, reference compound]
**Result** 6.00 to 7.00

**Query** Value lookup for pIC50; key = CN(Cc1cc2nc(-c3cnc(N)nc3)nc(N3CCOCC3)c2s1)c1ncc(C(=O)NO)cn1 [Compound 115]
**Result** 6.00 to 7.00

**Query** Value lookup for pIC50; key = CN(Cc1cc2nc(-c3cccc(O)c3)nc(N3CCOCC3)c2s1)c1ncc(C(=O)NO)cn1 [Compound 132]
**Result** 6.00 to 7.00

**Query** Value lookup for pIC50; key = C[C@H](O)c1cccc(-c2nc(N3CCOCC3)c3sc(CN(C)c4ncc(C(=O)NO)cn4)cc3n2)c1 [Compound 296]
**Result** > 8.00

**Query** Value lookup for pIC50; key = CN(Cc1cc2nc(-c3cccc(CO)c3)nc(N3CCOCC3)c2s1)c1ncc(C(=O)NO)cn1 [Compound 138]
**Result** 7.00 to 8.00

**Query** Value lookup for pIC50; key = CN(Cc1cc2nc(-c3cccc4[nH]ncc34)nc(N3CCOCC3)c2s1)c1ncc(C(=O)NO)cn1 [Compound 54]
**Result** 7.00 to 8.00

Reference for the values: patent US20130102595A1
